Data credit: PubChem BioAssay (EPA / NIEHS)

Read-out: Lipase C (LIPC), LIPC (gene 3990)
assay-info: LTEA_HepaRG_LIPC: Life Technologies and Expression Analysis (LTEA) Assay for Lipase C (LIPC) using HepaRG (AID 2283514)
setup-conditions: mRNA level, 48 h; actives raise or lower the signal
The source made the active and inactive calls. Rule for the calls: active = hit-call score of the fitted dose curve at least 0.9, where 1 is the maximum; inactive = score below 0.9.
measurement-type: AC50

Completed entries (count: 5):
| compound | AC50 |
| --- | --- |
| COP(=S)(OC)Oc1nc(Cl)c(Cl)cc1Cl | inactive |
| Cc1ccc(-c2c(Cl)nc(C#N)n2S(=O)(=O)N(C)C)cc1 | 50 µM (active) |
| CNC(=O)ON=CC(C)(C)SC | inactive |
| CCc1nn(C)c(C(=O)NCc2ccc(C(C)(C)C)cc2)c1Cl | 0.58 µM (active) |
| CN(C)C(=S)SSC(=S)N(C)C | inactive |

Alright, here's another compound for you.
AC50 for CC(C)(C)c1ccc(CSc2cnn(C(C)(C)C)c(=O)c2Cl)cc1 ?
2.82 µM (active)

====

assay-info: ATG_ERE_CIS: Attagene CIS-FACTORIAL HepG2 Assay for Estrogen Response Element (ERE) (AID 2282940)
setup-conditions: HepG2 ERE cis-reporter, Attagene RNA transcript; actives raise or lower the signal
Protocol: ATG_CIS is a cell-based, multiplexed-readout assay that uses HepG2, a human liver cell line, with measurements taken at 24 hours after chemical dosing in a 24-well plate.ATG_ERE_CIS is one of 52 assay component(s) measured or calculated from the ATG_CIS assay. […] This assay endpoint, ATG_ERE_CIS, was analyzed with bidirectional fitting relative to DMSO as the negative control and baseline of activity. […]
Calls of active or inactive are those of the source. Rule for the calls: active = hit-call score of the fitted dose curve at least 0.9, where 1 is the maximum; inactive = score below 0.9.
I would appreciate it if you answered using one of these outcomes: active, inactive

Worked examples, 5 molecules total:
| molecule | label-class |
| --- | --- |
| CC1=C(C(=O)Nc2ccccc2)SCCO1 | inactive |
| CCCN(CCC)c1c([N+](=O)[O-])cc(S(N)(=O)=O)cc1[N+](=O)[O-] | inactive |
| C=CCC1=C(C)[C@@H](OC(=O)[C@@H]2[C@@H](C=C(C)C)C2(C)C)CC1=O | inactive |
| CCCCNC(=O)n1c(NC(=O)OC)nc2ccccc21 | inactive |
| O=C(Nc1ccccc1)Nc1ccnc(Cl)c1 | inactive |

Dear all, I need the recorded test outcome for O=C(O)c1nc(Cl)ccc1Cl , thank you.
inactive

Dear all, I need the recorded test outcome for CC1COC(Cn2cncn2)(c2ccc(Oc3ccc(Cl)cc3)cc2Cl)O1 (configuration not stated) , thank you.
active

====

assay-info: ATG_Oct_MLP_CIS: Attagene CIS-FACTORIAL HepG2 Assay for human Octamer-Binding Transcription Factor (Oct) (AID 2282993)
setup-conditions: HepG2 Attagene cis-factorial Oct reporter, mRNA; actives raise or lower the signal
Calls of active or inactive are those of the source. How the source made its calls: active means hit-call score of the fitted dose curve at least 0.9, where 1 is the maximum; inactive means score below 0.9.
I would appreciate it if you answered using one of these outcomes: class 1 = active, class 0 = inactive

Worked examples, 6 molecules total:
| molecule | label-class |
| --- | --- |
| COc1nc(C)nc(NC(=O)NS(=O)(=O)c2ccccc2Cl)n1 | class 0 |
| CC(C)Oc1cc(-n2nc(C(C)(C)C)oc2=O)c(Cl)cc1Cl | class 1 |
| O=C(O)c1nc(Cl)ccc1Cl | class 0 |
| O=C(Nc1ccccc1)Nc1ccnc(Cl)c1 | class 1 |
| CON(C)C(=O)Nc1ccc(Cl)c(Cl)c1 | class 0 |
| CN(C)C(=S)SSC(=S)N(C)C | class 0 |

Dear all, I need the recorded test outcome for CNC(=O)ON=CC(C)(C)SC , thank you.
class 0
